- protocol text: Equilibrium solubility in water
- Format: physicochemical
- condition parameters: thermodynamic from solid; Water, 30° C., equilibrated 6 hrs, HPLC
assay readout: solubility at 6 h (mg/mL)

>>> print(df.to_string())
                                   molecule  unit_name  val
0  CC(O)[C@H](NC(=O)N[C@@H](CC(N)=O)c1nc([C@@H](N)CO)no1)C(=O)O (stereo in doubt) [Form A]      mg/mL  137

----------
- protocol text: Solubility in simulated gastric fluid and pH-adjusted water at room temperature
- Format: physicochemical
- condition parameters: water with pH adjusted by NaOH and HCl, aqueous buffer, thermodynamic from solid, pH 9.14 (pH 5.15 after test), read-out: solubility in water solution with pH adjusted by NaOH and HCl
assay readout: solubility

In [3]: df
Out[3]:
                                   molecule                val
0  CC(O)[C@H](NC(=O)N[C@@H](CC(N)=O)c1nc([C@@H](N)CO)no1)C(=O)O (stereo in doubt) [Form A]  83.5 to 111 mg/mL

----------
- protocol text: Solubility in simulated gastric fluid and pH-adjusted water at room temperature
- Type: physicochemical
- condition parameters: water with pH adjusted by NaOH and HCl, aqueous buffer, thermodynamic from solid, pH 7.08 (pH 5.13 after test), read-out: solubility in water solution with pH adjusted by NaOH and HCl
assay readout: solubility

>>> df
                                   molecule  assay_readout                val
0  CC(O)[C@H](NC(=O)N[C@@H](CC(N)=O)c1nc([C@@H](N)CO)no1)C(=O)O (stereo in doubt) [Form A]     solubility  87.5 to 117 mg/mL

----------
- protocol text: Equilibrium solubility in water
- Assay type: physicochemical
- condition parameters: thermodynamic from solid; Water, 20° C., equilibrated 6 hrs, HPLC
assay readout: solubility at 6 h (mg/mL)

In [3]: df
Out[3]:
                                   molecule      assay_readout  val
0  CC(O)[C@H](NC(=O)N[C@@H](CC(N)=O)c1nc([C@@H](N)CO)no1)C(=O)O (stereo in doubt) [Form A]  solubility at 6 h  125
